target: PDZ3 (PSD-95) (UniProt P78352); experiment: fluorescence polarisation; displacement of 5 nM FITC-15 AA CRIPT from PDZ3 or a PSG variant by unlabelled acetylated peptide (2-fold series), room temperature, technical triplicates; Ki calculated from IC50 (Nikolovska-Coleska); buffer: methods 50 mM sodium phosphate pH 7.45, 21 mM KCl, 0.1% Tween 20, 1 mM TCEP; legend of Figure 2: 50 mM Tris, 100 mM NaCl, 1 mM TCEP, 0.1% Tween 20
pKi: −log10 of the molar value. Ends that are not written are not given here.
metric: pKi

binder="Ac-YDSIEIYIPEAQTRL [Ac-…]" metric=pKi data_value=3.78

Taken from paper PMC9490041.
